B1: scFv; the commonest letter at each place (parent)
chain 1: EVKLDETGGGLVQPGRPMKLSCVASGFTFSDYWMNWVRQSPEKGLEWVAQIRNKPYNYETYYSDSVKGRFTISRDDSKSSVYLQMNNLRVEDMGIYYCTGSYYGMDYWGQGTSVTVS
chain 2: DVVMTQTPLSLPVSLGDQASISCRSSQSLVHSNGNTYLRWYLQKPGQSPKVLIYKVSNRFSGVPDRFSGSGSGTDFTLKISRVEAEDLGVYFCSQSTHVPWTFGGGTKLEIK

- Variants of: B1
- assay.method.text: yeast surface expression (ratio to wild type); higher = more expressed
- run.conditions: format: scFv 4-4-20, heavy + light
Entries annotated with measured yeast surface expression
Give the value as a plain number.

[
  {
    "variant.designation": "chain 1 N35I W36L",
    "yeast surface expression": 2.65
  },
  {
    "variant.designation": "chain 1 Y102A G109K",
    "yeast surface expression": 0.279
  },
  {
    "variant.designation": "chain 1 N35A W36P",
    "yeast surface expression": 0.663
  },
  {
    "variant.designation": "chain 1 D31Q Y32R V37Q",
    "yeast surface expression": 0.133
  },
  {
    "variant.designation": "chain 1 W33Q W36T",
    "yeast surface expression": 0.706
  }
]

INPUT: Quick one: yeast surface expression of chain 1 W108A G109C ?
OUTPUT: 0.197

INPUT: Quick one: yeast surface expression of chain 1 T28V W36H ?
OUTPUT: 0.619

INPUT: Quick one: yeast surface expression of chain 1 D31G W33Q ?
OUTPUT: 0.657

INPUT: Quick one: yeast surface expression of chain 1 G100N Y107K ?
OUTPUT: 0.6

INPUT: Quick one: yeast surface expression of chain 1 G100I G109I ?
OUTPUT: 0.25

INPUT: Quick one: yeast surface expression of chain 1 M105H W108D ?
OUTPUT: 0.353

INPUT: Quick one: yeast surface expression of chain 1 D31N Y32L ?
OUTPUT: 0.878

INPUT: Quick one: yeast surface expression of chain 1 T28W N35A ?
OUTPUT: 0.862

INPUT: Quick one: yeast surface expression of chain 1 S30H Y32R V37Q ?
OUTPUT: 1.99

INPUT: Quick one: yeast surface expression of chain 1 S101C Y107G ?
OUTPUT: 0.245

INPUT: Quick one: yeast surface expression of chain 1 F29P W33E ?
OUTPUT: 0.722

INPUT: Quick one: yeast surface expression of chain 1 T28M V37G ?
OUTPUT: 0.468

INPUT: Quick one: yeast surface expression of chain 1 T28H S30N Y32M ?
OUTPUT: 1.01

INPUT: Quick one: yeast surface expression of chain 1 T28V M34Y ?
OUTPUT: 0.889

INPUT: Quick one: yeast surface expression of chain 1 Y32R W33I ?
OUTPUT: 0.763

INPUT: Quick one: yeast surface expression of chain 1 Y32E W36N ?
OUTPUT: 1.09

INPUT: Quick one: yeast surface expression of chain 1 D106M W108H ?
OUTPUT: 0.556

INPUT: Quick one: yeast surface expression of chain 1 V37L ?
OUTPUT: 0.782

INPUT: Quick one: yeast surface expression of chain 1 S30C W33Y ?
OUTPUT: 1.04

INPUT: Quick one: yeast surface expression of chain 1 N35V V37Y ?
OUTPUT: 0.727
